System: DU-145
Assay Overview: NCI tumour cell line growth inhibition, 48 h
Calls of active or inactive are those of the source. Rule as the data show it: active = GI50 up to about 1.1 µM and inactive = higher.
Reported Property: GI50

Compound | GI50
Cc1ccc2c(c1C)C(=O)C1(Cc3cc4c(cc3C1=O)CCC4)C2 (centres undefined) | > 100 µM (inactive)
O=S(=O)(c1ccc2ccccc2c1)N1CCN(S(=O)(=O)c2ccc3ccccc3c2)CC1 | > 100 µM (inactive)
COC(=O)/C=C1/OC(c2ccc(OC)cc2)=C(Cl)C1=O | 18.2 µM (inactive)
C(#CC1(Nc2ccccc2)CCN(Cc2ccccc2)CC1)C1(Nc2ccccc2)CCN(Cc2ccccc2)CC1 | 46.9 µM (inactive)

Query GI50 for CC(C)[Si](CC1=CCCCC12C(=O)N(COCC[Si](C)(C)C)c1ccccc12)(C(C)C)C(C)C (centres undefined)
66.7 µM (inactive)

Query GI50 for `O=S(=O)(O)c1cccc2ccc(O)c(/N=N\c3ccc(S(=O)(=O)c4ccc(/N=N/c5c(O)ccc6cccc(S(=O)(=O)O)c56)cc4)cc3)c12`
> 100 µM (inactive)

Query GI50 for `CC(NC(=O)N(C)C)NC(=O)N(C)C`
> 10 µM (inactive)

Query GI50 for `Cc1ccn2c(=O)cc(CN3CCOCC3)nc2c1`
> 100 µM (inactive)

Query GI50 for `N#CCCN(C(=O)Nc1ccc(NC(=O)N(CCC#N)c2ccccc2)cc1)c1ccccc1`
> 100 µM (inactive)

----------
Tested on: HCC 2998
Assay Overview: NCI tumour cell line growth inhibition, 48 h
Active and inactive are the calls of the source. Rule as the data show it: active = GI50 up to about 1.1 µM and inactive = higher.
Reported Property: GI50

Consider the worked cases shown below.
Compound | GI50
CN(C)CCN(C)C(=O)c1cccc2cccc(C(=O)O)c12 | > 100 µM (inactive)
COC(=O)C1C(OCc2ccccc2)C2CCC1(OC)C=C2C (stereo unspecified) | 62.5 µM (inactive)
CCCCCCCCCCCCCCCC(=O)OCC1OC(n2ccc(N)nc2=O)C(O)C1O (stereo unspecified) | 8.47 µM (inactive)
Cc1nc2ccc(Cl)cc2c2c1CCN2c1ccc(F)cc1 | 23.6 µM (inactive)
Nc1nc(N)c2c3c(cnc2n1)CC(c1ccccc1)CC3 (stereo unspecified) | 34 µM (inactive)
COC(=O)c1ccc2[nH]c3c(c2c1)CC(=O)Nc1ccccc1-3 | > 100 µM (inactive)

Query GI50 for Cc1cc(N(CC(C)Br)CC(C)Br)ccc1/N=N/c1ccccc1C(=O)O (stereo unspecified)
1.15 µM (inactive)

Query GI50 for `Cn1c(=O)nc2n(-c3ccc(O)cc3)c3ccccc3nc-2c1=O`
29.9 µM (inactive)

Query GI50 for `O=C(/C=C/c1ccc(-c2ccccc2)cc1)NCc1ccc(C(=O)NCc2ccccc2)cc1`
> 100 µM (inactive)

Query GI50 for `CCCCCCCCCCc1c2nc(c(CCCCCCCCCC)c3ccc([nH]3)c(CCCCCCCCCC)c3nc(c(CCCCCCCCCC)c4ccc1[nH]4)C=C3)C=C2`
> 100 µM (inactive)

Query GI50 for `O=C(c1c(F)c(F)c(F)c(F)c1F)N1CCN(C(=O)c2c(F)c(F)c(F)c(F)c2F)C1=S`
9.57 µM (inactive)

Query GI50 for Cc1ccc([N+](=O)[O-])cc1S(=O)(=O)Nc1ccc(C2=NN(S(=O)(=O)c3cc([N+](=O)[O-])ccc3C)C(c3ccccc3)C2)cc1 (stereo unspecified)
22.2 µM (inactive)

Query GI50 for `CCCc1cc(=O)oc2c(C=O)c(O)cc(O)c12`
16.7 µM (inactive)

Query GI50 for `O=C(Nc1ccc(I)cc1C(=O)NCCO)c1cccs1`
> 100 µM (inactive)

Query GI50 for `CCCCCCCCSC(SCCCCCCCC)=C1C(=O)N(c2ccccc2)N=C1C`
71.3 µM (inactive)

----------
Tested on: ACHN
Assay Overview: NCI tumour cell line growth inhibition, 48 h
Activity calls are given as the source filed them. Rule as the data show it: active = GI50 up to about 1.1 µM and inactive = higher.
Bench note: report the call from Y = active, N = inactive

Before answering, review these 5 worked examples.
Compound | Category
CNC(=S)/C(C#N)=C(\N)N1CCCC1 | N
O=C(NNC(=S)Nc1ccccc1)c1ccccc1Nc1ccccc1C(=O)NNC(=S)Nc1ccccc1 | N
O=[N+]([O-])c1ccc(C2ON=C(c3ccccc3)N2C23CC4CC(CC(C4)C2)C3)cc1 (stereo not given) | N
CCCc1cc(=O)oc2c(C=O)c(O)cc(O)c12 | N
COC(=O)N/N=C(\C)C(CN(C)C)C(c1ccccc1)c1c(O)c2ccccc2oc1=O (stereo not given) | N

Identify the outcome logged in this assay for the compound shown: `CC(C)=CCC/C(C)=C/CC/C(C)=C/CC/C(C)=C/C=C/C=C(\C)CC/C=C(\C)CC/C=C(\C)CCC=C(C)C`
N

Identify the outcome logged in this assay for the compound shown: `COc1cc2c(c(OC)c1O)-c1ccc(OC)c(=O)cc1[C@@H](NC(=O)C(F)(F)F)CC2`
Y

Identify the outcome logged in this assay for the compound shown: `CSC(SC)=C(C#N)C(=O)Nc1cccc(Cl)c1`
N

Identify the outcome logged in this assay for the compound shown: `CCOc1cc(/C=N/c2nc3cc4sc(/N=C/c5ccc(O)c(OCC)c5)nc4cc3s2)ccc1O`
N

Identify the outcome logged in this assay for the compound shown: `O=C(CCc1ccccc1)ON1C(=S)C(c2ccccc2)(c2ccccc2)N=C1Sc1ccccc1`
N

----------
Tested on: T47D
Assay Overview: NCI tumour cell line growth inhibition, 48 h
The source made the active and inactive calls. Cut-off read from the data, not from the text of the source: active = GI50 up to about 1.1 µM and inactive = higher.
GI50 listing for selected compounds.

Consider the worked cases shown below.
Compound | GI50
Clc1cccc(Cl)c1C1SCc2nc3ncccc3n21 (centres undefined) | > 100 µM (inactive)
CCCCCCCCCCNC1CC(OC2CC(O)(C(O)CO)Cc3c(O)c4c(c(O)c32)C(=O)c2c(OC)cccc2C4=O)OC(C)C1O (centres undefined) | 1.86 µM (inactive)
O=C(O)c1ccccc1-c1ccccc1C(=O)Nc1ccc2c(c1)nc(O)c1ccccc12 | > 100 µM (inactive)

Attention now turns to another entry.
Query GI50 for `O=S(=O)(c1ccc2ccccc2c1)N1CCN(S(=O)(=O)c2ccc3ccccc3c2)CC1`
> 100 µM (inactive)

----------
Tested on: UACC-62
Assay Overview: NCI tumour cell line growth inhibition, 48 h
The source made the active and inactive calls. No stated cut-off is given here; in the data, active = GI50 up to about 1.1 µM and inactive = higher.
Bench note: report the call from active, inactive

Before answering, review these 5 worked examples.
Compound | Category
CCC(C)(C)NC1=C(NC(C)=O)C(=O)c2ccccc2C1=O | inactive
O=C(Cc1nc2ncccc2[nH]c1=O)c1c[nH]c2ccccc12 | inactive
Cc1cc2c(s1)C(N)CC2=O (stereo unspecified) | inactive
CCOc1ccc(NC(=O)C(=O)Nn2c(N)nnc2N)cc1 | inactive
COc1ccc2[nH]c(C(=O)N3CC(CCl)c4c3cc(N)c3ccccc43)cc2c1 (stereo unspecified) | active

Consider the record given below.
Identify the outcome logged in this assay for the compound shown: `O=C(c1c(F)c(F)c(F)c(F)c1F)N1CCN(C(=O)c2c(F)c(F)c(F)c(F)c2F)C1=S`
inactive

----------
Tested on: 786-0
Assay Overview: NCI tumour cell line growth inhibition, 48 h
Activity calls are given as the source filed them. No stated cut-off is given here; in the data, active = GI50 up to about 1.1 µM and inactive = higher.
Reported Property: GI50

Consider the worked cases shown below.
Compound | GI50
O=c1oc2cc(/N=C/c3ccccc3Cl)ccc2c2ccccc12 | > 100 µM (inactive)
CCCCCCCCCCc1c2nc(c(CCCCCCCCCC)c3ccc([nH]3)c(CCCCCCCCCC)c3nc(c(CCCCCCCCCC)c4ccc1[nH]4)C=C3)C=C2 | > 100 µM (inactive)
Cc1ccn2c(=O)cc(CN3CCOCC3)nc2c1 | > 100 µM (inactive)

Query GI50 for CC(C)=CCN1c2ccccc2NC(=O)CC1C (stereo unspecified)
> 100 µM (inactive)

Query GI50 for `O=C(c1c(F)c(F)c(F)c(F)c1F)N1CCN(C(=O)c2c(F)c(F)c(F)c(F)c2F)C1=S`
13.2 µM (inactive)

Query GI50 for `O=C(NCCCN1CCN(CCCNC(=O)Nc2cccc3ccccc23)CC1)Nc1cccc2ccccc12`
18.9 µM (inactive)

Query GI50 for CSCCC(NC(=O)C(Cc1c[nH]c2ccccc12)NC(=O)CCNC(=O)OC(C)(C)C)C(=O)NC(CC(=O)O)C(=O)NC(Cc1ccccc1)C(N)=O (stereo unspecified)
> 50 µM (inactive)

Query GI50 for `O=C1NC2(CCCC2)C(=O)C12CCCC2`
> 100 µM (inactive)

Query GI50 for `CCCCCc1cc(CCCC)sc1-c1ccco1`
> 100 µM (inactive)

Query GI50 for CC(=O)O[C@H]1CCN2C(=O)C=CC(OCc3ccccc3)C12 (stereo partly specified)
> 100 µM (inactive)

Query GI50 for `Oc1ccc(O)c(-n2cccn2)c1`
62.1 µM (inactive)

Query GI50 for COC(=O)/C=C\C1C(C(=O)OC)C2(C(=O)OC)CCC1(C(=O)OC)N2 (stereo unspecified)
15.3 µM (inactive)

----------
Tested on: HOP-62
Assay Overview: NCI tumour cell line growth inhibition, 48 h
The source made the active and inactive calls. No stated cut-off is given here; in the data, active = GI50 up to about 1.1 µM and inactive = higher.
Bench note: report the call from class 1 = active, class 0 = inactive

Compound | Category
O=C1/C(=C/c2cccc(Cl)c2)CCCc2ccccc21 | class 0
C#C[C@]1(O)CC[C@H]2[C@@H]3CCc4cc(OC(=O)c5cccc6cc7ccccc7nc56)ccc4[C@H]3CC[C@@]21C | class 0
CCC(=O)OC1=C(c2ccccc2)Sc2ccc(Cl)cc2-n2cccc21 | class 0

Identify the outcome logged in this assay for the compound shown: `CN(C)CCNC(=O)c1cccc2[nH]c(-c3ccncc3)nc12`
class 0

Identify the outcome logged in this assay for the compound shown: `COCCN(CCNC(=O)c1cccc2c(N)c3cccc(C)c3nc12)CCOC`
class 1
